# Read-out: matrix metalloproteinase-3 (MMP3), MMP3 (gene 4314)
# Method: LTEA_HepaRG_MMP3: Life Technologies and Expression Analysis (LTEA) Assay for matrix metalloproteinase-3 (MMP3) using HepaRG (AID 2283519)
# Experimental Setup: mRNA level, 48 h; actives raise or lower the signal
# Method: LTEA_HepaRG is a cell based, multiplexed-readout assay that uses HepaRG, a human liver cell line, with measurements taken at 48 hours after chemical dosing on a 96-well plate.LTEA_HepaRG_MMP3 is one of 102 assay component(s) measured in the LTEA HepaRG cell culture assay. It is a marker of Fibrosis.Data from the assay component LTEA_HepaRG_MMP3 was analyzed into 1 endpoint. […]
Activity calls are given as the source filed them. The calls were made as follows: active = hit-call score of the fitted dose curve at least 0.9, where 1 is the maximum; inactive = score below 0.9.
A correct response names exactly one class from active, inactive

O=C(O)C(F)(F)C(F)(F)C(F)(F)C(F)(F)C(F)(F)F: inactive
CCCCCCOC(=O)c1ccccc1C(=O)OCCCCCC: inactive
CCOCCOC(C)=O: inactive
CCSC(=O)N(CC)C1CCCCC1: inactive

Q: Which outcome did this test record for the molecule C[C@]12CCC(=O)C=C1CC[C@@H]1[C@@H]2CC[C@@]2(C)[C@H]1CC[C@]2(C)O ?
Ans: active

Q: Which outcome did this test record for the molecule Cc1ccccc1O ?
Ans: inactive

Q: Which outcome did this test record for the molecule c1ccc(-c2ccccc2)cc1 ?
Ans: inactive

Q: Which outcome did this test record for the molecule ClC1=C(Cl)[C@]2(Cl)[C@@H]3[C@@H]4C[C@@H]([C@H]5O[C@@H]45)[C@@H]3[C@@]1(Cl)C2(Cl)Cl ?
Ans: inactive

Q: Which outcome did this test record for the molecule Oc1c(Cl)c(Cl)c(Cl)c(Cl)c1Cl ?
Ans: active

Q: Which outcome did this test record for the molecule O=S(=O)(O)C(F)(F)C(F)(F)C(F)(F)C(F)(F)F ?
Ans: inactive

Q: Which outcome did this test record for the molecule Cc1ccc(O)c(C)c1 ?
Ans: inactive

Q: Which outcome did this test record for the molecule N#Cc1ccc(N(CC(N)=O)CC(F)(F)F)cc1C(F)(F)F ?
Ans: inactive

Q: Which outcome did this test record for the molecule CC(C)(c1ccccc1)c1ccc(O)cc1 ?
Ans: inactive

Q: Which outcome did this test record for the molecule Oc1ccc(Cl)cc1Cl ?
Ans: inactive

Q: Which outcome did this test record for the molecule Cc1cc(-c2ccc(N)c(C)c2)ccc1N ?
Ans: inactive

Q: Which outcome did this test record for the molecule Cc1cccc([N+](=O)[O-])c1 ?
Ans: inactive

Q: Which outcome did this test record for the molecule C=CC(N)=O ?
Ans: inactive

Q: Which outcome did this test record for the molecule CN(C)CCO ?
Ans: inactive

Q: Which outcome did this test record for the molecule CCCCCCCCOC(=O)c1ccccc1C(=O)OCCCCCCCC ?
Ans: inactive

Q: Which outcome did this test record for the molecule CCOC(=O)C(O)(c1ccc(Cl)cc1)c1ccc(Cl)cc1 ?
Ans: inactive

* * *

# Read-out: UDP glucuronosyltransferase (UGT1A6), UGT1A6 (gene 54578)
# Method: LTEA_HepaRG_UGT1A6: Life Technologies and Expression Analysis (LTEA) Assay for UDP glucuronosyltransferase (UGT1A6) using HepaRG (AID 2283539)
# Experimental Setup: mRNA level, 48 h; actives raise or lower the signal
Activity calls are given as the source filed them. How the source made its calls: active means hit-call score of the fitted dose curve at least 0.9, where 1 is the maximum; inactive means score below 0.9.
A correct response names exactly one class from 1.0 (active), 0.0 (inactive)

Q: Which outcome did this test record for the molecule CCC(C)c1cc([N+](=O)[O-])cc([N+](=O)[O-])c1O (stereo not drawn) ?
Ans: 1.0

Q: Which outcome did this test record for the molecule Nc1ccc(-c2ccc(N)cc2)cc1 ?
Ans: 0.0

Q: Which outcome did this test record for the molecule CCCN(CCC)N=O ?
Ans: 0.0

Q: Which outcome did this test record for the molecule O=C(O)C(F)(F)C(F)(F)C(F)(F)C(F)(F)C(F)(F)F ?
Ans: 0.0

Q: Which outcome did this test record for the molecule c1cc2ccc3cccc4ccc(c1)c2c34 ?
Ans: 0.0

Q: Which outcome did this test record for the molecule CCOC(=O)C(O)(c1ccc(Cl)cc1)c1ccc(Cl)cc1 ?
Ans: 0.0

Q: Which outcome did this test record for the molecule Oc1ccc(Cl)cc1Cl ?
Ans: 0.0

Q: Which outcome did this test record for the molecule CCCCCCCCCC[N+](C)(C)CCCCCCCCCC ?
Ans: 1.0
